Provenance of the data: PubChem BioAssay (NCI)

# Test system: NCI/ADR-RES ovarian
# assay_details: NCI-60 one-dose screen, 48 h (100 = growth as untreated, 0 = no growth, -100 = all killed)
# measurement_conditions: 10 µM unless noted
About 83,000 compounds went through this panel and 20% of them were active in at least one assay; those are over-represented in the sample as a whole.
Below, each of the compounds is paired with its reported growth value.
reported_property: growth (%)

In [3]: df
Out[3]:
                            smiles_structure  quantity_unit  number
 0  CCn1c2ccc(O)cc2c2c(C)c3c[n+](C(C)C)ccc3c(C)c21              %    66.5
 1  COc1ncc2cc1NS(=O)(=O)c1cccc(c1)C(=O)NCC1=CC=C(S1)c1ncnc3c1SC2=C3C              %    10.6
 2  COc1cc(/C=C\c2cc(/C=C\c3ccc(O)c(OC)c3)n(C(=O)CNc3ccc(Cl)cc3)n2)ccc1O              %      21
 3  CN1CCN(C(=O)c2cc(-c3ccc4ncnc(N5CCc6cc(F)c(Cl)cc65)c4c3)cnc2N)CC1              %    8.74
 4  Cc1nn(-c2ccccc2)c(/N=C/N(C)C)c1/C=C/C(=O)c1ccc(Cl)cc1              %    86.9
 5  C=C1C(=O)O[C@H]2[C@H]1CC/C(COC(=O)/C=C\C(=O)NCc1ccc(Cn3c(=O)sn(-c4ccccc4)c3=O)cc1)=C\CC[C@@]1(C)O[C@@H]21              %     111
 6  O=C1NC(=O)c2c1c1c3ccccc3[nH]c1c1oc3cc(Br)ccc3c21              %    77.3
 7  C=C1C(=O)O[C@H]2[C@H]1CC/C(COC(=O)NCc1ccc(Cn3c(=O)sn(-c4ccc(OC)cc4)c3=O)cc1)=C\CC[C@@]1(C)O[C@@H]21              %    95.8
 8  COc1cc(C(=O)/C=C/c2c(-c3cccs3)nc3ccccn23)cc(OC)c1OC              %   -15.6
 9                        CC(C)(CO)N(CCO)CCO              %     102
10         Fc1ccc(CNc2c3ccccc3nc3ccccc23)cc1              %    29.7
11  COc1cc(-c2nc3ccc(C)cc3[nH]2)ccc1OCC(=O)N=Nc1c(O)[nH]c2ccc(Cl)cc12              %    83.4
12           CCOC(=O)Nc1nc2ccc(SCC(C)C)cc2s1              %    14.1
13  N#C/C(=C\c1ccc(Cl)cc1Cl)C(=O)Nc1ncc(Cc2ccc(Cl)c(Cl)c2)s1              %    83.2
14  O=C1N[C@@H]2[C@@H](O)[C@@H](O)[C@H](O)C[C@H]2c2cc3c(c(O)c21)OCCO3              %  -0.441
15                    S=c1[nH]c2cc(Cl)ccc2o1              %     106
16   Nc1c(C(=O)Nc2ccncc2)sc2nc3c(cc12)CCCCC3              %    75.5
17      CN(CCC#N)c1ccc(/C=C2\NC(=O)NC2=O)cc1              %    93.2
18  COc1ccc(C/C(C)=C(\c2ccc(O)cc2)c2ccc(OCCN3CCCC3)cc2)cc1              %     104
19          COc1ccc2cc(-c3cnc4nonc4n3)ccc2c1              %   -4.57
